- method-description: soluble on expression in E. coli; label from the status in PepcDB or PDB records

{"polymer-sequence": "MDCKELARIFYALSEPKRLCMVKLLLEREELCVCDFMRIFKESQPKISFHLKVLREAGLVTSQKRGKWNYYRLNKEAPVIPCVEKLLKDVKLEEKIQLEVKR", "soluble on expression in E. coli": "soluble"}
{"polymer-sequence": "MRMIVGHGIDIEELASIESAVTRHEGFAKRVLTALEMERFTSLKGRRQIEYLAGRWSAKEAFSKAMGTGISKLGFQDLEVLNNERGAPYFSQAPFSGKIWLSISHTDQFVTASVILEENHES", "soluble on expression in E. coli": "soluble"}

Values were extracted from the DeepSol protein solubility set.
